Test system: AMPA-R
Assay: Whole-cell patch clamp recording using rat primary hippocampal neurons
Assay type: cell-based
Details: single application; read-out: EC50, increase of AMPA-R-mediated currents
recorded.endpoint: pEC50
Answer as the number alone; pEC50 is minus log10 of concentration in mol/L.

query: Answer with the recorded pEC50 of Cc1onc(O)c1CC(N)C(=O)O (stereo not shown) [AMPA] only.
result: 4.35

----------
Biological target: UniProtKB P42261
Sequence (P42261 19-906 isoform P42261-2 limits assumed): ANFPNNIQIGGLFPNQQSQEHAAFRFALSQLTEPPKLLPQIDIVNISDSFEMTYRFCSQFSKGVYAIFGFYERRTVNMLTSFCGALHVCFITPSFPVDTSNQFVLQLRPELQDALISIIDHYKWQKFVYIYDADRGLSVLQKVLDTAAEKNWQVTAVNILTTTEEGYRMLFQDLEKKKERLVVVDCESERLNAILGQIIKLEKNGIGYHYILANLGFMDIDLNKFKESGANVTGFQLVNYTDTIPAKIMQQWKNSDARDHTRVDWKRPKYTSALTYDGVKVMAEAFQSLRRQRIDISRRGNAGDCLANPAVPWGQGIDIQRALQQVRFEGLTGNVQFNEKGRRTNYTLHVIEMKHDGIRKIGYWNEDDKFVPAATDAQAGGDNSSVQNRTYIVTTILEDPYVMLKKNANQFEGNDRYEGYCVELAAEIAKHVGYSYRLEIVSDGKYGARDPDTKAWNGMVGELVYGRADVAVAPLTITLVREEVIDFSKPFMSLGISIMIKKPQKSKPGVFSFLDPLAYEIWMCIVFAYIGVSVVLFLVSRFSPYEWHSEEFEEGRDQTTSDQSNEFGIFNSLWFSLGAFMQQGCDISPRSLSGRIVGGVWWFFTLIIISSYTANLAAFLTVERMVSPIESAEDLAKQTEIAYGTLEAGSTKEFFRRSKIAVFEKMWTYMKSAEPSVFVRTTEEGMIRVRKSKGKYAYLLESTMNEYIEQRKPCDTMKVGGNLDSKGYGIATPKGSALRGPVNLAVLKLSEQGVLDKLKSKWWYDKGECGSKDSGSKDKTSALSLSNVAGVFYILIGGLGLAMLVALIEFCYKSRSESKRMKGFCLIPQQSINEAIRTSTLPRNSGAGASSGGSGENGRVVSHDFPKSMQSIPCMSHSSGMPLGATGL
Sequence (Q9Y698 whole entry partner): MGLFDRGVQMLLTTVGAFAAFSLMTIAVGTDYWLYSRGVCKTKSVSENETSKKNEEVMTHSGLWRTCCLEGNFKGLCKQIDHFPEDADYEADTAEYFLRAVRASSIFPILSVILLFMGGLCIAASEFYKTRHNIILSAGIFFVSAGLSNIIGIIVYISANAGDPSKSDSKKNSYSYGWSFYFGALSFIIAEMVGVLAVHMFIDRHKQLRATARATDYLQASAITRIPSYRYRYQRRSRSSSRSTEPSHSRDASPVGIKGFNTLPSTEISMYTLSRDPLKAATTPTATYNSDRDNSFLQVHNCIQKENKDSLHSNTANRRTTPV
Assay: Ca2+ influx assay in hGluA1i CHO cells
Conditions: in the presence of glutamate (3 mM)
recorded.endpoint: EC50 (µM)
Numeric only. Scale: µM

query: Answer with the recorded EC50 of `CC1=CN2CCS(=O)(=O)N=C2C(c2ccc(OC3CCCCC3)cc2)=N1` only.
result: 3.3

----------
Sequence of the target: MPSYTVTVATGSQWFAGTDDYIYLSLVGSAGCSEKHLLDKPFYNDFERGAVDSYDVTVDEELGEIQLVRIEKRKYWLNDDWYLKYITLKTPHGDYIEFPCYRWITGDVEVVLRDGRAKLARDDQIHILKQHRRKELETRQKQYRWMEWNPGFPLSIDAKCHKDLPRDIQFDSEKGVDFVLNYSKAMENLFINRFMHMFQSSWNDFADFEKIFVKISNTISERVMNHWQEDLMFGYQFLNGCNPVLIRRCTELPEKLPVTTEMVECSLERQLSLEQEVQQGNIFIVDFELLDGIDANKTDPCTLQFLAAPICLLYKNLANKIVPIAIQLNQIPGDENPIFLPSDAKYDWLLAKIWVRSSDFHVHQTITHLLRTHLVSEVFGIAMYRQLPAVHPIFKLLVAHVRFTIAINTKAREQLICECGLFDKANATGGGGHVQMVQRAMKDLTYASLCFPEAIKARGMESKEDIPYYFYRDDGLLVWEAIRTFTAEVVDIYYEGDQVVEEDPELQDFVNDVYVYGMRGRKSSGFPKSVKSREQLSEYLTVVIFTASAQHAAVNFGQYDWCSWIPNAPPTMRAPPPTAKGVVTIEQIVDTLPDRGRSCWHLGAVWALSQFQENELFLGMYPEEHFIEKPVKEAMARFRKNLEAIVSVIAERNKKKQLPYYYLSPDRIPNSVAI
recorded.endpoint: pIC50
Answer as the number alone; pIC50 is minus log10 of concentration in mol/L.

query: Answer with the recorded pIC50 of `CC1=CN2CCS(=O)(=O)N=C2C(c2ccc(OC3CCCCC3)cc2)=N1` only.
result: 5.23

----------
Experiment: Pharmacokinetics in monkeys
Assay type: in vivo
Conditions: monkey, plasma, po, 0.03 mg/kg
recorded.endpoint: half-life

query: Answer with the recorded half-life of CC1=CN2CCS(=O)(=O)N=C2C(c2ccc(OC3CCCCC3)cc2)=N1 [TAK-653] only.
result: 9.4 h

----------
Molecular target: UniProtKB P42262
Sequence (P42262 with tags, fused parts or gaps): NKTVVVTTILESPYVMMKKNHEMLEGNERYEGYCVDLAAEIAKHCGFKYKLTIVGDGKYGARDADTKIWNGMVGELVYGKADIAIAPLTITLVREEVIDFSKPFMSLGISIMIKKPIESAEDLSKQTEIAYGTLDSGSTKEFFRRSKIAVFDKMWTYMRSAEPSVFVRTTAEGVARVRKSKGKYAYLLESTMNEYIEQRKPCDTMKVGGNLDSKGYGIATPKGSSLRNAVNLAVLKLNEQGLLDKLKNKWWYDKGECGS
Test: SPA displacement of [3H]-HBT1 from His-tagged GluA2o LBD
Conditions: 40 nM [3H]-HBT1, 100 μM glutamate, read-out: IC50, inhibition of binding between [3H]-HBT1 and His-LBD
recorded.endpoint: IC50 (nM)
Numeric only. Scale: nM

query: Answer with the recorded IC50 of `CC1=CN2CCS(=O)(=O)N=C2C(c2ccc(OC3CCCCC3)cc2)=N1` only.
result: 260
